target-entity: Ribosomal protein S6 kinase alpha-1 (Homo sapiens);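 further: mean inhibition of RSK1, reported in the GSK PKIS screen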
experimental-conditions: at 1 µM
measurement-type: inhibition (%)

* NS(=O)(=O)c1ccc(N/N=C2\C(=O)Nc3ccc(C(=O)NCCCn4ccnc4)cc32)cc1 | 7.85
* NC(=O)c1ccc(Oc2nccc(-c3c(-c4ccc(F)cc4)ncn3C3CCNCC3)n2)cc1 | 1.84
* COc1cc(Nc2ncc(-c3ccccc3)o2)cc(OC)c1OC | 3.07
* CN(c1ccc(NC(=O)Nc2c(Cl)cccc2Cl)cc1)c1ccnc(Nc2cccc(CS(C)(=O)=O)c2)n1 | 4.66
* NS(=O)(=O)c1ccc(Nc2cc(-c3ccc(O)c(F)c3)n[nH]2)cc1 | 32.6
* COc1ccc(-c2ccc3c(NC(=O)C4CC4)n[nH]c3n2)cc1 | 2.59
* NC(=O)Cc1ccccc1Oc1nccc(-c2c(-c3ccc(F)cc3)ncn2C2CCNCC2)n1 | 0.63
* NCc1ccc(-n2c(-c3nonc3N)nc3cnccc32)cc1 | 87.9
* COc1ccc2ncn(-c3cc(O[C@H](C)c4ccccc4Cl)c(C(N)=O)s3)c2c1 | 0.44
* O=C(Nc1n[nH]c2nc(-c3ccc(O)cc3)c(Br)cc12)C1CC1 | 33
* C[C@@H](Oc1cc(-n2cnc3ccc(OCC4CCN(C)CC4)cc32)sc1C(N)=O)c1ccccc1Cl | 16.8
* COc1cc(Nc2ncc3c(C)nc(-c4cccc(Oc5ccccc5)c4)n3n2)cc(OC)c1OC | 7.14
* Cc1ccc(C(=O)NC2CCC2)cc1-c1ccc(C(=O)NCC2CC2)cc1 | 1.45
* CCS(=O)(=O)c1ccc(OC)c(Nc2ncc(-c3ccccc3Cl)o2)c1 | 5.76
* COc1cc(C)c(N(C)C(=O)CN(C)C)cc1Nc1nc(Nc2cccc(F)c2C(N)=O)c2cc[nH]c2n1 | 3.02
* CNC(=O)c1cncc(/C=C/c2c(C)cccc2C)c1 | 0.45
* CCc1nccc2c1nc(-c1nonc1N)n2CC | 35.2
* Fc1ccc(-c2c(-c3ccncc3)nc3n2CCS3)cc1 | 6.17
* CCC(=O)Nc1ccc(C)c(-c2ccc(C(=O)NCC3CC3)cc2)c1 | 0.53
* COc1ccc(C2=C(N3CCc4ccccc43)C(=O)NC2=O)cc1 | 4.09
* COc1ccc2cc(-c3c(-c4ccncc4)nc(-c4ccc([S+](C)[O-])cc4C)n3C)ccc2c1 (stereo not drawn) | -1.48
* c1ccc(Oc2ccc(Nc3ncc(-c4ccccc4)o3)cc2)cc1 | 3.12
* NC(=O)c1cc(-c2ccc(F)cc2)cc(-c2ccncc2)c1N | 2.59
